Where do these numbers come from? They come from the MegaScale stability set (Tsuboyama et al. 2023).

B1: HEEH_KT_rd6_0007 (parent)
chain: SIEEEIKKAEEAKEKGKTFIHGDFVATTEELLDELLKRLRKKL

variants of: B1; test: folding stability dG (cDNA display proteolysis); higher = more stable; conditions: PBS, room temperature
Readout Kind: folding stability dG (kcal/mol)

# Mutations, Readout Kind, Observed
rows = [
    ("F19T", "folding stability dG", 0.77),
    ("L43T", "folding stability dG", 0.533),
    ("R38M", "folding stability dG", 1.9),
    ("E4W", "folding stability dG", 1.27),
    ("E11S", "folding stability dG", 0.928),
    ("D33E", "folding stability dG", 1.34),
    ("E30W", "folding stability dG", 1.42),
    ("L43E", "folding stability dG", 0.224),
    ("K7V", "folding stability dG", 0.878),
    ("E34A", "folding stability dG", 1.19),
    ("R38Y", "folding stability dG", 2.01),
    ("E4H", "folding stability dG", 1.06),
    ("K41T", "folding stability dG", 1.04),
    ("E29I", "folding stability dG", 1.76),
    ("K42H", "folding stability dG", 1.1),
    ("L32H", "folding stability dG", 0.393),
    ("E10N", "folding stability dG", 0.992),
    ("I2S", "folding stability dG", 0.818),
    ("R40T", "folding stability dG", 0.465),
    ("K7P", "folding stability dG", 0.656),
    ("I6W", "folding stability dG", 0.615),
    ("A9Y", "folding stability dG", 0.662),
    ("E3Y", "folding stability dG", 1.28),
    ("I6G", "folding stability dG", 0.684),
    ("L32W", "folding stability dG", 0.894),
    ("A26R", "folding stability dG", 0.603),
    ("R38P", "folding stability dG", -0.239),
    ("E4R", "folding stability dG", 1.07),
    ("D23G", "folding stability dG", 1.16),
    ("T27E", "folding stability dG", 1.24),
    ("K13L", "folding stability dG", 1.16),
    ("E10M", "folding stability dG", 1.44),
    ("T27G", "folding stability dG", 1.08),
    ("E4N", "folding stability dG", 1.02),
    ("H21I", "folding stability dG", 1.03),
    ("E4C", "folding stability dG", 1.78),
    ("K42E", "folding stability dG", 1.23),
    ("K15W", "folding stability dG", 1.07),
    ("L35I", "folding stability dG", 1.15),
    ("K41E", "folding stability dG", 1.19),
    ("L39P", "folding stability dG", -0.251),
    ("K41G", "folding stability dG", 0.924),
    ("G22S", "folding stability dG", 0.873),
    ("E5N", "folding stability dG", 1.05),
    ("E10S", "folding stability dG", 0.844),
    ("F19N", "folding stability dG", 0.745),
    ("L31D", "folding stability dG", 1.52),
    ("D23Y", "folding stability dG", 1.3),
    ("L39R", "folding stability dG", 0.516),
    ("L31I", "folding stability dG", 0.938),
    ("I2N", "folding stability dG", 0.583),
    ("E5H", "folding stability dG", 1.11),
    ("K13S", "folding stability dG", 0.704),
    ("E4K", "folding stability dG", 1),
    ("L36R", "folding stability dG", 0.531),
    ("T27I", "folding stability dG", 1.11),
    ("E3M", "folding stability dG", 1.45),
    ("H21V", "folding stability dG", 1.04),
    ("R40C", "folding stability dG", 1.31),
    ("K8N", "folding stability dG", 0.961),
    ("K42D", "folding stability dG", 0.935),
    ("K17C", "folding stability dG", 2.53),
    ("L43I", "folding stability dG", 0.768),
    ("E11Y", "folding stability dG", 1.17),
    ("S1T", "folding stability dG", 1.28),
    ("H21S", "folding stability dG", 1.39),
    ("F24N", "folding stability dG", 0.509),
    ("E34C", "folding stability dG", 1.64),
    ("K37P", "folding stability dG", -0.465),
    ("D33T", "folding stability dG", 1.1),
    ("E14R", "folding stability dG", 1.68),
    ("D33N", "folding stability dG", 1.27),
    ("G22F", "folding stability dG", 1.14),
    ("E34I", "folding stability dG", 1.36),
    ("R38T", "folding stability dG", 1.15),
    ("A26V", "folding stability dG", 0.954),
    ("K42Y", "folding stability dG", 1.5),
    ("I6Y", "folding stability dG", 0.676),
    ("R38D", "folding stability dG", 0.493),
    ("E10W", "folding stability dG", 1.06),
    ("I2Q", "folding stability dG", 0.766),
    ("L31T", "folding stability dG", 0.882),
    ("L36K", "folding stability dG", -0.007),
    ("T28D", "folding stability dG", 0.797),
    ("L39M", "folding stability dG", 0.977),
    ("F24D", "folding stability dG", 0.649),
    ("K13W", "folding stability dG", 1.09),
    ("G22I", "folding stability dG", 1.45),
    ("K17H", "folding stability dG", 1.44),
    ("V25T", "folding stability dG", 0.907),
    ("F19W", "folding stability dG", 0.964),
]
